Assay: Plasma stability assay, mouse plasma
Format: in vitro ADME
Conditions: 24 h incubation, 37° C., read-out: % intact compound remaining after incubation, Mouse plasma
Numbered stars: 1 amine (or outer) side, 2 acyl side, 3 side chain; on linkers, the order of the positions; unused ones are H or OH. Bridge positions count the residues as written; N and C are the ends. Peptide text beside a SMILES is read from it. * marks the point of attachment. TBMB(SCH2CH2NH-DOTA) = O=C(O)CN1CCN(CC(=O)O)CCN(CC(=O)NCCSCc2cc(C[*:1])cc(C[*:2])c2)CCN(CC(=O)O)CC1; X1 = O=C(O)CN1CCN(CC(=O)O)CCN(CC(=O)N2CCN(Cc3cc(C[*:1])cc(C[*:2])c3)CC2)CCN(CC(=O)O)CC1; Hexanoyl = CCCCCC(=O)*
Listing of recorded remaining at 24 h, 9.8 µM by entry.
Just the number please, in %, no unit attached.

Use the examples below as a reference point.
Exercise: For the molecule CCCCCC(=O)N[C@H]1CSCc2cc(CSCCNC(=O)CN3CCN(CC(=O)O)CCN(CC(=O)O)CCN(CC(=O)O)CC3)cc(c2)CSC[C@@H](C(=O)N[C@@H](CC(=O)O)C(N)=O)NC(=O)[C@H](Cc2ccccc2)NC(=O)[C@H](CCC(N)=O)NC(=O)[C@H]([C@@H](C)O)NC(=O)[C@@H]2CCCN2C(=O)[C@@H]2CCCN2C1=O [3BP-3426] (Hexanoyl-CPPTQFCD-NH2; linker 1-7 via TBMB(SCH2CH2NH-DOTA)) , give its measured remaining at 24 h, 9.8 µM value.
Key: 73

Exercise: State, in one line, measured remaining at 24 h, 9.8 µM of CCCC[C@H](NC(=O)CCC(=O)NCCCOCCOCCOCCCNC(=O)CN1CCN(CC(=O)O)CCN(CC(=O)O)CCN(CC(=O)O)CC1)C(=O)N[C@H]1CSCc2cccc(c2)CSC[C@@H](C(=O)NCCC(=O)O)NC(=O)[C@H](Cc2ccccc2)NC(=O)[C@H](CCC(N)=O)NC(=O)[C@H]([C@@H](C)O)NC(=O)[C@@H]2CCCN2C(=O)[C@@H]2CCCN2C1=O [3BP-3398]
Key: 94

Next:
Exercise: In one line, give reported remaining at 24 h, 9.8 µM of the entry CCCCCC(=O)N[C@H]1CSCc2cc(cc(CN3CCN(C(=O)CN4CCN(CC(=O)O)CCN(CC(=O)O)CCN(CC(=O)O)CC4)CC3)c2)CSC[C@@H](C(=O)N[C@@H](CC(=O)O)C(N)=O)NC(=O)[C@H](Cc2ccccc2)NC(=O)[C@H](CCC(N)=O)NC(=O)[C@H]([C@@H](C)O)NC(=O)[C@@H]2CCCN2C(=O)[C@@H]2CCCN2C1=O [3BP-3407] (Hexanoyl-CPPTQFCD-NH2; linker 1-7 via X1) .
Key: 79
